src = ChEMBL document CHEMBL4184326

assay protocol: Protonation constant, log K of the compound
Assay type: physicochemical
protocol conditions: 60% w/w DMSO/H2O
endpoint label: log K
One number for each entry.

COc1ccc(-c2ccc(Sc3ccccc3CC(=O)NO)cc2)cc1 ... 10.29
COc1ccc(-c2ccc(S(=O)(=O)c3ccccc3CC(=O)NS(C)(=O)=O)cc2)cc1 ... 5.5

Please indicate log K recorded for "COc1ccc(-c2ccc(Sc3ccccc3CC(=O)NS(C)(=O)=O)cc2)cc1"
5.5

----------
measured target: UniProt:P14780
assay protocol: Inhibition of recombinant human MMP-9 using Mca-Lys-Pro-Leu-Gly-Leu-Dap(Dnp)-Ala-Arg-NH2 as substrate preincubated for 3 hrs followed by substrate addition measured every 10 secs for 15 mins by fluorometric assay
Decide using IC50 alone. Strictly below 4 µM: Satisfied. Equal to or above 4 µM: Not satisfied.

Solved cases (3 shown):
COc1ccc(-c2ccc(S(=O)(=O)c3ccccc3CC(=O)NS(=O)(=O)C(F)(F)F)cc2)cc1 ... Not satisfied
COc1ccc(-c2ccc(Sc3ccccc3C3CCC(=O)N(O)C3=O)cc2)cc1 (stereo not given) ... Not satisfied
COc1ccc(-c2ccc(S(=O)(=O)c3ccccc3C3CCC(=O)N(O)C3=O)cc2)cc1 (stereo not given) ... Satisfied

I'd appreciate it if you could check whether "COc1ccc(-c2ccc(Sc3ccccc3CP(=O)(O)O)cc2)cc1" has IC50 smaller than 4 µM.
Satisfied

I'd appreciate it if you could check whether "COc1ccc(-c2ccc(S(=O)(=O)c3ccccc3CC(=O)NS(C)(=O)=O)cc2)cc1" has IC50 smaller than 4 µM.
Satisfied

----------
assay protocol: Metal chelating activity assessed as compound-Zn2+ complex formation at 1:2 metal to compound molar ratio at pH 3 to 8 by potentiometric titration method
Calls of active or inactive are those of the source. No cut-off for these calls is given here.
Please reply with one of these outcomes: active, inactive

Solved cases (3 shown):
COc1ccc(-c2ccc(S(=O)(=O)c3ccccc3C(CCC(=O)O)C(=O)O)cc2)cc1 (stereo unspecified) ... active
COc1ccc(-c2ccc(S(=O)(=O)c3ccccc3C3CCC(=O)N(O)C3=O)cc2)cc1 (stereo unspecified) ... active
COc1ccc(-c2ccc(Sc3ccccc3CC(=O)O)cc2)cc1 ... inactive

For "COc1ccc(-c2ccc(S(=O)(=O)c3ccccc3CC(=O)NS(C)(=O)=O)cc2)cc1" , what call appears in the results of this test?
active

----------
assay protocol: Metal chelating activity assessed as compound-Zn2+ complex formation by measuring free metal ion levels at compound to metal molar ratio 10 at pH 6 by potentiometric titration method
Record form. Attribute: log(activity). Fill in for each entry.
One number for each entry.

// worked examples, log(activity) included
COc1ccc(-c2ccc(Sc3ccccc3C(CCC(=O)O)C(=O)O)cc2)cc1 (stereo unspecified) ... 6.04
COc1ccc(-c2ccc(S(=O)(=O)c3ccccc3CC(=O)NS(=O)(=O)C(F)(F)F)cc2)cc1 ... 6.91

Parameter requested: log(activity). Apply to each item below.
1. COc1ccc(-c2ccc(Sc3ccccc3CC(=O)O)cc2)cc1
2. COc1ccc(-c2ccc(S(=O)(=O)c3ccccc3C(CCC(=O)O)C(=O)O)cc2)cc1 (stereo unspecified)
3. COc1ccc(-c2ccc(S(=O)(=O)c3ccccc3CC(=O)NS(C)(=O)=O)cc2)cc1

6.04
6.14
6.56

Parameter requested: log(activity). Apply to each item below.
1. COc1ccc(-c2ccc(S(=O)(=O)c3ccccc3C3CCC(=O)N(O)C3=O)cc2)cc1 (stereo unspecified)
2. COc1ccc(-c2ccc(Sc3ccccc3C3CCC(=O)N(O)C3=O)cc2)cc1 (stereo unspecified)
3. COc1ccc(-c2ccc(Sc3ccccc3CC(=O)NS(=O)(=O)C(F)(F)F)cc2)cc1
4. COc1ccc(-c2ccc(S(=O)(=O)c3ccccc3CC(=O)O)cc2)cc1
5. COc1ccc(-c2ccc(Sc3ccccc3CC(=O)NS(C)(=O)=O)cc2)cc1

1: 6.13; 2: 6.05; 3: 6.75; 4: 6.1; 5: 6.1

Please indicate log(activity) recorded for "COc1ccc(-c2ccc(Sc3ccccc3CC(=O)NO)cc2)cc1"
6.04

----------
measured target: Matrix metalloproteinase-9 (Homo sapiens, UniProt P14780)
Sequence (P14780 whole entry): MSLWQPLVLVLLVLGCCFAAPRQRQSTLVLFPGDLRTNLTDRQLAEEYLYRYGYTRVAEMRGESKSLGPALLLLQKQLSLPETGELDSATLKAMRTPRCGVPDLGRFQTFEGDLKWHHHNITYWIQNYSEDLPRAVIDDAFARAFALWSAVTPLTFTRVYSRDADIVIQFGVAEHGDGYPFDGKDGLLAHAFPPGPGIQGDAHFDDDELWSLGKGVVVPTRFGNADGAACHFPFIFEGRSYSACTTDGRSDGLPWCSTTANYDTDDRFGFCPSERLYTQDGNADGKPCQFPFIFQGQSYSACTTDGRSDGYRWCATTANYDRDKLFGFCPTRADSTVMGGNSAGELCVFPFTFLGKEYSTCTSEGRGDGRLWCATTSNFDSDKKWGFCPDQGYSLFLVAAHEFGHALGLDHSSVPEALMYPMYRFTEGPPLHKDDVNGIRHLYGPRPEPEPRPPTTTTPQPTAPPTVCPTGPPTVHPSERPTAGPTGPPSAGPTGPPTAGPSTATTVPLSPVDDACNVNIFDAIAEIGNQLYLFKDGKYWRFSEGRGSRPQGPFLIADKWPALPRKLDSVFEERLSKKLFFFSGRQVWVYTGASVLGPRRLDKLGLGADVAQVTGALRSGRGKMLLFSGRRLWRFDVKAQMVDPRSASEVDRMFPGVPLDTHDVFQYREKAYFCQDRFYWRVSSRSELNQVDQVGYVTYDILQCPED
assay protocol: Inhibition of recombinant human MMP-9 using Mca-Lys-Pro-Leu-Gly-Leu-Dap(Dnp)-Ala-Arg-NH2 as substrate preincubated for 3 hrs followed by substrate addition measured every 10 secs for 15 mins by fluorometric assay
pIC50: −log10 of the molar value.
Returns True if the recorded pIC50 is greater than or equal to 5, and False otherwise.

Solved cases (5 shown):
COc1ccc(-c2ccc(Sc3ccccc3C(CCC(=O)O)C(=O)O)cc2)cc1 (stereo unspecified) ... True
COc1ccc(-c2ccc(S(=O)(=O)c3ccccc3C(CCC(=O)O)C(=O)O)cc2)cc1 (stereo unspecified) ... False
COc1ccc(-c2ccc(Sc3ccccc3C(=O)CS(C)(=O)=O)cc2)cc1 ... False
COc1ccc(-c2ccc(S(=O)(=O)c3ccccc3C(=O)CS(C)(=O)=O)cc2)cc1 ... False
COc1ccc(-c2ccc(Sc3ccccc3CC(=O)NS(=O)(=O)C(F)(F)F)cc2)cc1 ... False

Consider the record given below.
Please tell me: is the compound "COc1ccc(-c2ccc(Sc3ccccc3CC(=O)NS(C)(=O)=O)cc2)cc1" at or over 5 in terms of pIC50?
False

----------
Record form. Attribute: IC50. Fill in for each entry.
measured target: 72 kDa type IV collagenase (Homo sapiens, UniProt P08253)
Sequence (P08253 whole entry): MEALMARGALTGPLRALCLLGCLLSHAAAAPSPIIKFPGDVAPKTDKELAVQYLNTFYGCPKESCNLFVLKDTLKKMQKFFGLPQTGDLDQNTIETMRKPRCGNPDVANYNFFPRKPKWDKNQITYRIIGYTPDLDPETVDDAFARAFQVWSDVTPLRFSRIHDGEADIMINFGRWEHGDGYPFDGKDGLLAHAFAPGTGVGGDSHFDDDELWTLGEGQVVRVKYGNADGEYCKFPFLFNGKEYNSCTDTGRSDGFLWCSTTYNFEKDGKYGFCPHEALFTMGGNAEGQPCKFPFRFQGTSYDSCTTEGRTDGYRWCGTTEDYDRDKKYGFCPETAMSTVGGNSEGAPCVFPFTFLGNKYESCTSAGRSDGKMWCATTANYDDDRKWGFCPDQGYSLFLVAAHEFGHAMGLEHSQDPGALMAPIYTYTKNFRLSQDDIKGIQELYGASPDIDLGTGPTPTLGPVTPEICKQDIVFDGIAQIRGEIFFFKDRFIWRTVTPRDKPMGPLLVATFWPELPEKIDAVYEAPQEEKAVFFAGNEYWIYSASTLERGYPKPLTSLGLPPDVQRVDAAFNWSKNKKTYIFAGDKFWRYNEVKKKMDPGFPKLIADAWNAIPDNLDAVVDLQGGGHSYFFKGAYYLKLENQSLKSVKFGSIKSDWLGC
assay protocol: Inhibition of recombinant human MMP-2 using Mca-Lys-Pro-Leu-Gly-Leu-Dap(Dnp)-Ala-Arg-NH2 as substrate preincubated for 3 hrs followed by substrate addition measured every 10 secs for 15 mins by fluorometric assay
Numbers only, in nM.

// worked examples, IC50 included
COc1ccc(-c2ccc(Sc3ccccc3C3CCC(=O)N(O)C3=O)cc2)cc1 (stereo not given) ... 670
COc1ccc(-c2ccc(Sc3ccccc3C(CCC(=O)O)C(=O)O)cc2)cc1 (stereo not given) ... 660
COc1ccc(-c2ccc(Sc3ccccc3CP(=O)(O)O)cc2)cc1 ... 250

Now for a further molecule.
Answer briefly: IC50 recorded on 72 kDa type IV collagenase (Homo sapiens, UniProt P08253) for "COc1ccc(-c2ccc(Sc3ccccc3CC(=O)NS(=O)(=O)C(F)(F)F)cc2)cc1"
46000

----------
measured target: 72 kDa type IV collagenase (Homo sapiens, UniProt P08253)
assay protocol: Inhibition of recombinant human MMP-2 using Mca-Lys-Pro-Leu-Gly-Leu-Dap(Dnp)-Ala-Arg-NH2 as substrate preincubated for 3 hrs followed by substrate addition measured every 10 secs for 15 mins by fluorometric assay
Decide using IC50 alone. Strictly below 2 µM: true (1). Equal to or above 2 µM: false (0).

COc1ccc(-c2ccc(S(=O)(=O)c3ccccc3C(CCC(=O)O)C(=O)O)cc2)cc1 (stereo not given) ... true (1)
COc1ccc(-c2ccc(Sc3ccccc3C(=O)CS(C)(=O)=O)cc2)cc1 ... false (0)
COc1ccc(-c2ccc(S(=O)(=O)c3ccccc3CC(=O)NS(C)(=O)=O)cc2)cc1 ... false (0)
COc1ccc(-c2ccc(S(=O)(=O)c3ccccc3CC(=O)NS(=O)(=O)C(F)(F)F)cc2)cc1 ... false (0)

I'd appreciate it if you could check whether COc1ccc(-c2ccc(S(=O)(=O)c3ccccc3C3CCC(=O)N(O)C3=O)cc2)cc1 (stereo not given) has IC50 smaller than 2 µM.
true (1)

----------
measured target: Macrophage metalloelastase (Homo sapiens)
Sequence (P39900 whole entry): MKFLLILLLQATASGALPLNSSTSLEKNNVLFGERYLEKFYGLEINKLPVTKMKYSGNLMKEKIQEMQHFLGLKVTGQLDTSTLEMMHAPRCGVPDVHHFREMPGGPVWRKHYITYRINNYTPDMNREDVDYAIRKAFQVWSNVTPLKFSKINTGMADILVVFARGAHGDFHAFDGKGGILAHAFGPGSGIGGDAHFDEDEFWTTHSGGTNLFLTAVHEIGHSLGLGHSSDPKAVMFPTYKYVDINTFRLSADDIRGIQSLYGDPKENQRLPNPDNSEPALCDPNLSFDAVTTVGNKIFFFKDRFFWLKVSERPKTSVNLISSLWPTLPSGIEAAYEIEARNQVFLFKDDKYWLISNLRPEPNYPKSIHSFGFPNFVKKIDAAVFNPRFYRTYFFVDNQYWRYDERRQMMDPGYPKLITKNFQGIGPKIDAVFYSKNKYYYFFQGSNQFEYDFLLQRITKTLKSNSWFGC
assay protocol: Inhibition of recombinant human MMP-12 using Mca-Lys-Pro-Leu-Gly-Leu-Dap(Dnp)-Ala-Arg-NH2 as substrate preincubated for 3 hrs followed by substrate addition measured every 10 secs for 15 mins by fluorometric assay
Decide using IC50 alone. Strictly below 500 nM: Satisfied. Equal to or above 500 nM: Not satisfied.

I'd appreciate it if you could check whether "COc1ccc(-c2ccc(Sc3ccccc3CC(=O)NO)cc2)cc1" has IC50 smaller than 500 nM.
Satisfied

----------
assay protocol: Protonation constant, log K of the compound
Format: physicochemical
protocol conditions: 60% w/w DMSO/H2O
Record form. Attribute: log K. Fill in for each entry.

COc1ccc(-c2ccc(S(=O)(=O)c3ccccc3C3CCC(=O)N(O)C3=O)cc2)cc1 (centres undefined) ... 9.03 to 9.35
COc1ccc(-c2ccc(Sc3ccccc3CC(=O)NS(=O)(=O)C(F)(F)F)cc2)cc1 ... < 2

Parameter requested: log K. Apply to each item below.
1. COc1ccc(-c2ccc(S(=O)(=O)c3ccccc3CC(=O)NS(=O)(=O)C(F)(F)F)cc2)cc1
2. COc1ccc(-c2ccc(Sc3ccccc3C3CCC(=O)N(O)C3=O)cc2)cc1 (centres undefined)

["< 2", "9.03 to 9.35"]

----------
assay protocol: Metal chelating activity assessed as compound-Zn2+ complex formation at 1:2 metal to compound molar ratio at pH 3 to 8 by potentiometric titration method
Activity calls are given as the source filed them. The rule behind the calls is not given here.
Please reply with one of these outcomes: 1 = active, -1 = inactive

COc1ccc(-c2ccc(Sc3ccccc3CC(=O)NS(=O)(=O)C(F)(F)F)cc2)cc1 ... -1

For "COc1ccc(-c2ccc(S(=O)(=O)c3ccccc3CC(=O)O)cc2)cc1" , what call appears in the results of this test?
1

For COc1ccc(-c2ccc(Sc3ccccc3C(CCC(=O)O)C(=O)O)cc2)cc1 (configuration not stated) , what call appears in the results of this test?
1

For "COc1ccc(-c2ccc(S(=O)(=O)c3ccccc3CC(=O)NS(=O)(=O)C(F)(F)F)cc2)cc1" , what call appears in the results of this test?
-1

For "COc1ccc(-c2ccc(Sc3ccccc3CC(=O)NS(C)(=O)=O)cc2)cc1" , what call appears in the results of this test?
-1

For COc1ccc(-c2ccc(Sc3ccccc3C3CCC(=O)N(O)C3=O)cc2)cc1 (configuration not stated) , what call appears in the results of this test?
1

For "COc1ccc(-c2ccc(Sc3ccccc3CC(=O)NO)cc2)cc1" , what call appears in the results of this test?
1
